test: Volume of distribution at steady state in dog at 2 mg/kg, iv and 10 mg/kg, po; assay type: ADME, organism-based, Canis lupus familiaris; conditions: in vivo, read-out: Vdss
property-measured: Vd

Input: Consider the compound shown here: Cc1cc(C)cc(-c2cnc3cc(Cl)c(-c4ccc(=O)[nH]c4)cc3c2OCC[C@H]2CCCCN2)c1 What is its recorded Vd?
Output: 0.094 L/kg

###

test: Plasma clearance in dog at 2 mg/kg, iv and 10 mg/kg, po; assay type: ADME, organism-based, Canis lupus familiaris
property-measured: clearance (mL/min/kg)
Give the quantity in mL/min/kg, number only.

Input: Consider the compound shown here: Cc1cc(C)cc(-c2cnc3cc(Cl)c(-c4ccc(=O)[nH]c4)cc3c2OCC[C@H]2CCCCN2)c1 What is its recorded clearance?
Output: 5
